Values compiled from ChEMBL document CHEMBL1151697.

What follows is a collection of pKi values obtained with Histamine H3 receptor (Homo sapiens).
Sequence (Q9Y5N1 whole entry): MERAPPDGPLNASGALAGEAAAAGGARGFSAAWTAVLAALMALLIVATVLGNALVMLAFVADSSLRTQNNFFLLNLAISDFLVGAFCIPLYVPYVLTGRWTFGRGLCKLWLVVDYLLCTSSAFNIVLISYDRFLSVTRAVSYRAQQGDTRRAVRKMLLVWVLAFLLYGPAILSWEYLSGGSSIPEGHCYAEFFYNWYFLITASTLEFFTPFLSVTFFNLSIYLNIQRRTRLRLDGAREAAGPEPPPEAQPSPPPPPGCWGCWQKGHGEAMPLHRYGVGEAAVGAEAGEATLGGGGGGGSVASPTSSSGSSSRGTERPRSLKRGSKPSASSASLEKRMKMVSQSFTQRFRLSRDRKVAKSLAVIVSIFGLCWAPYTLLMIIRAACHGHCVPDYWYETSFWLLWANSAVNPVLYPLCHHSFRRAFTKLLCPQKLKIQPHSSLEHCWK
The value called pKi is obtained by taking minus log10 of the concentration in mol/L.

Any idea what its pKi is? The compound is `CN(Cc1ccc(-c2ccc(CN3CCCCC3)cc2)cc1)C1CCCCC1` 8.56

Likewise for `CCCN(CCC)Cc1ccc(-c2ccc(CN3CCCCC3)cc2)cc1` ? 8.76

Item: `c1cc(-c2ccc(CN3CCCCC3)cc2)ccc1CCN1CCCCC1` 8.70

Moving on to `CN(C)CCc1ccc(-c2ccc(CCN(C)C)cc2)cc1` 8.29

// repeat for `N#Cc1ccc(OCc2ccc(-c3ccc(CN4CCCCC4)cc3)cc2)cc1` and report 7.12

Another: `CN(Cc1ccccc1)Cc1ccc(-c2ccc(CN3CCCCC3)cc2)cc1` 8.17

What about this compound? `CC1CCN(Cc2ccc(-c3ccc(CN4CCCCC4)cc3)cc2)CC1` 8.62

Moving on to the next compound: `CCN(CC)Cc1ccc(-c2ccc(CN3CCCCC3)cc2)cc1` 8.71

And the next one, `CN(C)Cc1ccc(-c2ccc(CN3CCCCC3)cc2)cc1` ? 8.66

// repeat for `C(CCCCN1CCCCC1)CCCCN1CCCCC1` and report 8.35

What would you report for `c1cc(-c2ccc(CN3CCOCC3)cc2)ccc1CN1CCCCC1` ? 7.71

Then this compound: `CCCN(CCC)C(=O)Cc1ccc(-c2ccc(CN3CCCCC3)cc2)cc1` 8.07

Check CC1CC(C)CN(Cc2ccc(-c3ccc(CN4CCCCC4)cc3)cc2)C1 (stereo not drawn) too. 9.06

Cool, now `CCCN(CCC)Cc1ccc(-c2ccc(CC(=O)N3CCCCC3)cc2)cc1` 6.60

Another compound: `CCCN(CCC)Cc1ccc(-c2ccc(CCN3CCCCC3)cc2)cc1` 8.41

Same question, `CC1CCN(CCc2ccc(-c3ccc(CCN4CCC(C)CC4)cc3)cc2)CC1` this time 7.78

Follow-up item: `c1cc(-c2ccc(CN3CCCCC3)cc2)ccc1CN1CCCCC1` 8.47

Next record, please: `CCN(CC)Cc1ccc(-c2ccc(CN(CC)CC)cc2)cc1` 8.55

---

Target: Histamine H3 receptor (Homo sapiens)
Assay: Antagonist activity at human histamine H3 receptor expressed in SK-N-MC cells by CRE-mediated beta-galactosidase reporter gene assay administered 10 mins before (R)-alpha-methylhistamine challenge after 6 hrs
Type: functional, cell-based
measure-name: pKb
# answer = number (no unit)

// query pKb value for entry `c1cc(-c2ccc(CN3CCCCC3)cc2)ccc1CN1CCCCC1` 8.77

Also, `CCCN(CCC)Cc1ccc(-c2ccc(CN(CCC)CCC)cc2)cc1` please. 7.8

Subsequent entry: `N#Cc1ccc(OCc2ccc(-c3ccc(CN4CCCCC4)cc3)cc2)cc1` 7.27

Next: `CN(Cc1ccc(-c2ccc(CN3CCCCC3)cc2)cc1)C1CCCCC1` 9.19

Cool, now `O=C1CCCCN1Cc1ccc(-c2ccc(CN3CCCCC3)cc2)cc1` 7.46

Follow-up entry: `CC1CCN(Cc2ccc(-c3ccc(CN4CCCCC4)cc3)cc2)CC1` 8.64

Further, for `CN(C)Cc1ccc(-c2ccc(CN(C)C)cc2)cc1` ? 8.17

Next molecule up: `CC1CCN(CCc2ccc(-c3ccc(CCN4CCC(C)CC4)cc3)cc2)CC1` 8.17

Same for `c1cc(-c2ccc(CN3CCOCC3)cc2)ccc1CN1CCCCC1` 7.77

Further, for `c1cc(-c2ccc(CN3CCOCC3)cc2)ccc1CN1CCOCC1` ? 7.67

Next up: CC1CC(C)CN(Cc2ccc(-c3ccc(CN4CC(C)CC(C)C4)cc3)cc2)C1 (stereo unspecified) 6.19

---

Answer each item with its documented pKb.
Molecular target: Histamine H1 receptor (Cavia porcellus)
Test: Antagonist activity at histamine H1 receptor in guinea pig terminal ileum
Assay type: functional, tissue-based
I'd appreciate a reply containing only the number, no unit.

Could you share which pKb value was measured for `CC1CCN(CCc2ccc(-c3ccc(CCN4CCC(C)CC4)cc3)cc2)CC1` ? 5.85

For `CCCN(CCC)Cc1ccc(-c2ccc(CN(CCC)CCC)cc2)cc1` then? 5.54

And for `CCCN(CCC)C(=O)Cc1ccc(-c2ccc(CN3CCCCC3)cc2)cc1` ? 5.44

---

Molecular target: Acetylcholinesterase (Rattus norvegicus, UniProt P37136)
Sequence (P37136 whole entry): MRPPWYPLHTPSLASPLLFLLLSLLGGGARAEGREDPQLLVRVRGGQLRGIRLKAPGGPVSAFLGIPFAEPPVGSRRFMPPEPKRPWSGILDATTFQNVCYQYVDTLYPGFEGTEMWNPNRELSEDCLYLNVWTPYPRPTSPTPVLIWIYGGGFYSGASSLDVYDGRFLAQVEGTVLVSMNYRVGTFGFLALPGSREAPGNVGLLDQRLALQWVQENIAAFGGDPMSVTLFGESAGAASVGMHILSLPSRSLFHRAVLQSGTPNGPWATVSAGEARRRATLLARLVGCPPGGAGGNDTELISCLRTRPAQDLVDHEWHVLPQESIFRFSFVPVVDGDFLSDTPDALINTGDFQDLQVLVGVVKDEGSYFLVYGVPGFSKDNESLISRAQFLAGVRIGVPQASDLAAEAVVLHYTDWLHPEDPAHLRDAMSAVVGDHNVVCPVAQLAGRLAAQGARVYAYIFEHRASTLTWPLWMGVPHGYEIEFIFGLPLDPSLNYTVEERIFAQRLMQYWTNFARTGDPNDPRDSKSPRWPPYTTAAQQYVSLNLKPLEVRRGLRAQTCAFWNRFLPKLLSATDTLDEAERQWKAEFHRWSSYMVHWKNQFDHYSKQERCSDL
Consider the following molecules; for each one, report its log10 of IC50.
Parameter value (number): base-10 log of IC50 in µM.

Request body: readout log10 of IC50, system Acetylcholinesterase (Rattus norvegicus, UniProt P37136), query `CN(Cc1ccc(-c2ccc(CN3CCCCC3)cc2)cc1)C1CCCCC1` . Return the value. 0.14

How about `CC1CCN(Cc2ccc(-c3ccc(CN4CCCCC4)cc3)cc2)CC1` ? 0.15

# repeat for `c1cc(-c2ccc(CNC3CCCCC3)cc2)ccc1CNC1CCCCC1` 0.71

Record: `CN(Cc1ccccc1)Cc1ccc(-c2ccc(CN3CCCCC3)cc2)cc1` 0.50

And the next one, `c1cc(-c2ccc(CN3CCCCC3)cc2)ccc1CN1CCCCC1` ? 0.77

Continue with `CCCN(CCC)Cc1ccc(-c2ccc(CN3CCCCC3)cc2)cc1` 0.17

Entry CC1CC(C)CN(Cc2ccc(-c3ccc(CN4CCCCC4)cc3)cc2)C1 (stereo not given) please 0.38

Please answer likewise for `CCCN(CCC)Cc1ccc(-c2ccc(CCN3CCCCC3)cc2)cc1` 0.83

Repeat for the following molecule: `CC1CCN(Cc2ccc(-c3ccc(CN4CCC(C)CC4)cc3)cc2)CC1` 0.55

Same again, this time with `CCCN(CCC)Cc1ccc(-c2ccc(CC(=O)N3CCCCC3)cc2)cc1` 1.02

What do you get for `CC(=O)N1CCN(Cc2ccc(-c3ccc(CN4CCCCC4)cc3)cc2)CC1` ? 1.06

Try this molecule next: `c1cc(-c2ccc(CN3CCCCC3)cc2)ccc1CCN1CCCCC1` 0.04

Here is the next molecule: `CN(Cc1ccc(-c2ccc(CN(C)C3CCCCC3)cc2)cc1)C1CCCCC1` 0.22

Also check `CCCN(CCC)C(=O)Cc1ccc(-c2ccc(CN3CCCCC3)cc2)cc1` 1.05

Here is the next molecule: `c1cc(-c2ccc(CN3CCCCC3)cc2)ccc1CNC1CCCCC1` 0.76

---

I'd appreciate it if you could supply inhibition values for the items below.
Target: Acetylcholinesterase (Rattus norvegicus)
Sequence (whole entry): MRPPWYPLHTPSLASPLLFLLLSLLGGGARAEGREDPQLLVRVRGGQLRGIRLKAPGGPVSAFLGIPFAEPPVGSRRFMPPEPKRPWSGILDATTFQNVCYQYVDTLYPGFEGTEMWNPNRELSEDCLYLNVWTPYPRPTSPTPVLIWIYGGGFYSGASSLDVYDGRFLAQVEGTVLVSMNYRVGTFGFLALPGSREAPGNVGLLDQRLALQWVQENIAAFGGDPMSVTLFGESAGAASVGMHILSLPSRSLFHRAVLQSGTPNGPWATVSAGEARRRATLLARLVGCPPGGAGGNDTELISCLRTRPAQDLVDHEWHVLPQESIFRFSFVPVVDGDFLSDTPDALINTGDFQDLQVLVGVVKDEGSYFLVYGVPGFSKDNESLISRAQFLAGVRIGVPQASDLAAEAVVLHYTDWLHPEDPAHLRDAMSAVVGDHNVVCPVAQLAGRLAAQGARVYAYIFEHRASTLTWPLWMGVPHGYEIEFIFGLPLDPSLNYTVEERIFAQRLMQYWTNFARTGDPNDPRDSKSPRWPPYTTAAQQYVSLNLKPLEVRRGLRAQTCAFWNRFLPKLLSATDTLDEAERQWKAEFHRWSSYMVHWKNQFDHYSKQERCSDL
Test: Inhibition of acetylcholinesterase in Wistar rat brain homogenate at upto 1 to 100 uM by Ellman's method
Format: tissue-based
# unit: % | format: bare number

For the compound shown here, `CCCN(CCC)C(=O)Cc1ccc(-c2ccc(CN3CCCCC3)cc2)cc1` , give the reported inhibition. 80

`CN(Cc1ccc(-c2ccc(CN3CCCCC3)cc2)cc1)C1CCCCC1` ? 93

`CN(Cc1ccc(-c2ccc(CN(C)C3CCCCC3)cc2)cc1)C1CCCCC1` , same question. 57

# repeat for `CC1CCN(Cc2ccc(-c3ccc(CN4CCC(C)CC4)cc3)cc2)CC1` 83

Same question for `CCCN(CCC)Cc1ccc(-c2ccc(CC(=O)N3CCCCC3)cc2)cc1` please. 65

Try this compound next: `c1cc(-c2ccc(CN3CCCCC3)cc2)ccc1CN1CCCCC1` 82

Queued: `CC1CCN(Cc2ccc(-c3ccc(CN4CCCCC4)cc3)cc2)CC1` 93

`CCCN(CCC)Cc1ccc(-c2ccc(CCN3CCCCC3)cc2)cc1` ? 80

Moving on to `CCCN(CCC)Cc1ccc(-c2ccc(CN3CCCCC3)cc2)cc1` 93

Also `c1cc(-c2ccc(CN3CCCCC3)cc2)ccc1CNC1CCCCC1` ? 73

Note, next up: `c1cc(-c2ccc(CNC3CCCCC3)cc2)ccc1CNC1CCCCC1` 70
